- studyTarget: rFVIII (Homo sapiens)
- Sequence (P00451 20-2351): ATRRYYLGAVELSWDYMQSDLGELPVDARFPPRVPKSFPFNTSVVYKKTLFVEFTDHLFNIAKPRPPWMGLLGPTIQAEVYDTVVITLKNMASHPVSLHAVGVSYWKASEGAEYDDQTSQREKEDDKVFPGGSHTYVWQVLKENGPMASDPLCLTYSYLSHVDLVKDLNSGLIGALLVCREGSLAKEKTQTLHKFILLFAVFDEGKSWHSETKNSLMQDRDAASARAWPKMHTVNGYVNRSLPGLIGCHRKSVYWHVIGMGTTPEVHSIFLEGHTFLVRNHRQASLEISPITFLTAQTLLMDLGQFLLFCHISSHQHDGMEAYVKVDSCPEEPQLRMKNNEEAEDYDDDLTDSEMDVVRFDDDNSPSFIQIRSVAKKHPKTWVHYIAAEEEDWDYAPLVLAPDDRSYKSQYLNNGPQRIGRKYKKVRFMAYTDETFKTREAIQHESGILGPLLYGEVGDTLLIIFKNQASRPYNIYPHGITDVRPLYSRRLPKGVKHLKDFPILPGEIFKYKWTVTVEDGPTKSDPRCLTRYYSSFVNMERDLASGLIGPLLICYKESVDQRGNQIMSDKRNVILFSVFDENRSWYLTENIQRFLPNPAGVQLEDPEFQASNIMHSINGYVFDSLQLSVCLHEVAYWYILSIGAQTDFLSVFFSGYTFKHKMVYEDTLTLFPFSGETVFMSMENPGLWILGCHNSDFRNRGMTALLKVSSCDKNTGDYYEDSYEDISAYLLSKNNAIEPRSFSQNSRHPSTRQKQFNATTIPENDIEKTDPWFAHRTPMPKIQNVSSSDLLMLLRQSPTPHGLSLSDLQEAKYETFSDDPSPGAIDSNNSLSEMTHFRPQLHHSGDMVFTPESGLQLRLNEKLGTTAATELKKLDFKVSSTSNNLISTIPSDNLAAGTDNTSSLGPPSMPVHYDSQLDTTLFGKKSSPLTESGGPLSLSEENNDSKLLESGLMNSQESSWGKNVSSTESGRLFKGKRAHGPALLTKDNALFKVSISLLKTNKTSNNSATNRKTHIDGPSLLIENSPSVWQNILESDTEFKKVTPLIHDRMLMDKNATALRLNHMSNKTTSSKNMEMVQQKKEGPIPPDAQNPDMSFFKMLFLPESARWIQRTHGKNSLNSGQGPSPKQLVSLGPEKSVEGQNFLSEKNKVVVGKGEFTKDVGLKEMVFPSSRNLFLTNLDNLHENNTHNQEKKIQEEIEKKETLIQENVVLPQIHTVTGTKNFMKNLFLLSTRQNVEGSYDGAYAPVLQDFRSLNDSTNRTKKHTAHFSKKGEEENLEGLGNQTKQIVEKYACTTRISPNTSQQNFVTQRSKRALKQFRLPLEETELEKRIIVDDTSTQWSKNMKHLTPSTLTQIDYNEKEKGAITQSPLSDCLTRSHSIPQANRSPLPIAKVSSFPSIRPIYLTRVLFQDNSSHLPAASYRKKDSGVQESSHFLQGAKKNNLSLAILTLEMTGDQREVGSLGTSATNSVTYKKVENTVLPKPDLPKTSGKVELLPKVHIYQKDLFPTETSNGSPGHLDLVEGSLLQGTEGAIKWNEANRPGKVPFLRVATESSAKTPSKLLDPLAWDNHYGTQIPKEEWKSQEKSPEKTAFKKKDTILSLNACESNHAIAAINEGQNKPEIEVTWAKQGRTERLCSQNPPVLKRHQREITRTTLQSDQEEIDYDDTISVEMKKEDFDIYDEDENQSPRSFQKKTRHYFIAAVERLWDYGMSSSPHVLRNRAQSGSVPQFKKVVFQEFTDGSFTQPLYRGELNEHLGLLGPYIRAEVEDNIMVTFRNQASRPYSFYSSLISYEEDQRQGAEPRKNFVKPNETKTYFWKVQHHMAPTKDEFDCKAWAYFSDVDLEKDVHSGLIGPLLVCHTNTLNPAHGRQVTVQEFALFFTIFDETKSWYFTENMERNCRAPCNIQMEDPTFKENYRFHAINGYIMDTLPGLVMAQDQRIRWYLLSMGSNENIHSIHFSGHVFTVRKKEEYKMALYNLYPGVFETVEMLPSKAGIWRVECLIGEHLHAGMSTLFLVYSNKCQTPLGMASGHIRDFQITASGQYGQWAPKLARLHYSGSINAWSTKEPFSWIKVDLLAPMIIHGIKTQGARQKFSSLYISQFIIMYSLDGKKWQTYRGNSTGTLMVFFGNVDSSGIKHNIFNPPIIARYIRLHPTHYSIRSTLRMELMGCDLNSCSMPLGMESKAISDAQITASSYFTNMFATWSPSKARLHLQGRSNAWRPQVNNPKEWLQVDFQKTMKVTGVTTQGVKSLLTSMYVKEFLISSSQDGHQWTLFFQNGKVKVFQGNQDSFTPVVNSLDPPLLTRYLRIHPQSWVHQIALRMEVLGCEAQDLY
- Sequence (P00451 1668-2351 limits assumed): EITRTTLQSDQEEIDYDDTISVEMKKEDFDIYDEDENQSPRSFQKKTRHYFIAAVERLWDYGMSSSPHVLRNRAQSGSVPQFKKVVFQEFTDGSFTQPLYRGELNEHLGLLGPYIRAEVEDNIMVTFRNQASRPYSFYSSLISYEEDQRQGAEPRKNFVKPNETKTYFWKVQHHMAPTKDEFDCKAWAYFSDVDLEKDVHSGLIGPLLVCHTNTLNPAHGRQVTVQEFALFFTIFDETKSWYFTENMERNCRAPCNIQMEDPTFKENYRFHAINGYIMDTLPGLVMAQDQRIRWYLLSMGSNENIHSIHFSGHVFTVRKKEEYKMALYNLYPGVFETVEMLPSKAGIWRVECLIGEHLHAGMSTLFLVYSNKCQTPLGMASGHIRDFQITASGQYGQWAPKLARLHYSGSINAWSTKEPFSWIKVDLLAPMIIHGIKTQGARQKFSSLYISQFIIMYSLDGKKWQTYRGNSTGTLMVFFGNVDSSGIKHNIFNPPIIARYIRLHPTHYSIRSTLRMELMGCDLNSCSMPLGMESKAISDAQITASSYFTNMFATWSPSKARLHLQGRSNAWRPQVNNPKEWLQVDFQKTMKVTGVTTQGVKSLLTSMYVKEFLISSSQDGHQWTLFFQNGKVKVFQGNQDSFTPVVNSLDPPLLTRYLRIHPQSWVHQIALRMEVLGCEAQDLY
- testProtocol: rFVIII activity recovery from peptide columns by chromogenic substrate assay (COATEST)
- Format: biochemical
- settings: Table 7
observable: 2% acetic acid % total (%)

Consider the worked cases shown below.
substance	unitAbbreviation	2% acetic acid % total
2 (RNPPNN) [compound 2]	%	1
6 (HYWFYK) [compound 6]	%	1

[P] 1 (KPNPLA) [compound 1]
[Q] 7 (IRFYSE) [compound 7]
[R] 5 (LNWKYG) [compound 5]
Ask: Exam item: list the entries in increasing order of 2% acetic acid % total. Reply with the labels, ordered as the question asks.
Result: Q, P, R
(Q: 1%, P: 2%, R: 3%)

Data origin, for the record: patent US6191256A
